assay: Visual observation of test solutions for deposition of crystals or white turbidity; format: physicochemical; parameters: key: +: turbidity found; −: no turbidity; conditions: just after the preparation; agent added 12 mM
Outcome measure: turbidity (visual observation)

Some compounds with known turbidity (visual observation) results, for comparison:
Compound	turbidity (visual observation)
OC[C@H]1O[C@@H]2O[C@H]3[C@H](O)[C@@H](O)[C@@H](O[C@H]4[C@H](O)[C@@H](O)[C@@H](O[C@H]5[C@H](O)[C@@H](O)[C@@H](O[C@H]6[C@H](O)[C@@H](O)[C@@H](O[C@H]7[C@H](O)[C@@H](O)[C@@H](O[C@H]8[C@H](O)[C@@H](O)[C@@H](O[C@H]1[C@H](O)[C@H]2O)O[C@@H]8CO)O[C@@H]7CO)O[C@@H]6CO)O[C@@H]5CO)O[C@@H]4CO)O[C@@H]3CO [βCD, β-cyclodextrin, reference compound]	+
OC[C@H]1O[C@@H]2O[C@H]3[C@H](O)[C@@H](O)[C@@H](O[C@H]4[C@H](O)[C@@H](O)[C@@H](O[C@H]5[C@H](O)[C@@H](O)[C@@H](O[C@H]6[C@H](O)[C@@H](O)[C@@H](O[C@H]7[C@H](O)[C@@H](O)[C@@H](O[C@H]8[C@H](O)[C@@H](O)[C@@H](O[C@H]9[C@H](O)[C@@H](O)[C@@H](O[C@H]1[C@H](O)[C@H]2O)O[C@@H]9CO)O[C@@H]8CO)O[C@@H]7CO)O[C@@H]6CO)O[C@@H]5CO)O[C@@H]4CO)O[C@@H]3CO [γCD, γ-cyclodextrin, reference compound]	+
OCC1OC(OC2C(CO)OC(OCC3OC4OC5C(CO)OC(OC6C(CO)OC(OC7C(CO)OC(OC8C(CO)OC(OC9C(CO)OC(OC%10C(CO)OC(OC3C(O)C4O)C(O)C%10O)C(O)C9O)C(O)C8O)C(O)C7O)C(O)C6O)C(O)C5O)C(O)C2O)C(O)C(O)C1O (stereo not shown)	−
OC[C@H]1O[C@@H]2O[C@H]3[C@H](O)[C@@H](O)[C@@H](O[C@H]4[C@H](O)[C@@H](O)[C@@H](O[C@H]5[C@H](O)[C@@H](O)[C@@H](O[C@H]6[C@H](O)[C@@H](O)[C@@H](O[C@H]7[C@H](O)[C@@H](O)[C@@H](O[C@H]1[C@H](O)[C@H]2O)O[C@@H]7CO)O[C@@H]6CO)O[C@@H]5CO)O[C@@H]4CO)O[C@@H]3CO [αCD, α-cyclodextrin, reference compound]	+
OCC1OC(OCC2OC3OC4C(CO)OC(OC5C(CO)OC(OC6C(CO)OC(OC7C(CO)OC(OC8C(CO)OC(OC9C(CO)OC(OC2C(O)C3O)C(O)C9O)C(O)C8O)C(O)C7O)C(O)C6O)C(O)C5O)C(O)C4O)C(O)C(O)C1O (stereo not shown)	−

Data point: OCC1OC(OCC2OC3OC4C(CO)OC(OC5C(CO)OC(OC6C(CO)OC(OC7C(CO)OC(OC8C(CO)OC(OC2C(O)C3O)C(O)C8O)C(O)C7O)C(O)C6O)C(O)C5O)C(O)C4O)C(O)C(O)C1O (stereo not shown) ; turbidity (visual observation) = −

Data point: OCC1OC(OC2C(CO)OC(OCC3OC4OC5C(CO)OC(OC6C(CO)OC(OC7C(CO)OC(OC8C(CO)OC(OC9C(CO)OC(OC3C(O)C4O)C(O)C9O)C(O)C8O)C(O)C7O)C(O)C6O)C(O)C5O)C(O)C2O)C(O)C(O)C1O (stereo not shown) ; turbidity (visual observation) = −
